Hello, the source for this data is ChEMBL document CHEMBL1156160, in case you need it.

Experiment: Inhibition of HCV NS4A tagged recombinant single chain NS3 protease after 15 mins
Set-up: species or system Hepacivirus hominis
recorded-endpoint: pKi
// field semantics: pKi = negative decimal log of concentration (mol/L)

For record CC(C)(C)[C@H](NC(=O)NC1(Cc2ccccc2)CCCCCC1)C(=O)N1C[C@H]2[C@@H]([C@H]1C(=O)NC(CC1CC1)C(=O)C(N)=O)C2(C)C (stereo partly specified) the listed pKi is 7.11

The reported pKi of the compound CC(C)(C)[C@H](NC(=O)NC1(CS(=O)(=O)Cc2ccccc2)CCCCC1)C(=O)N1C[C@H]2[C@@H]([C@H]1C(=O)NC(CC1CC1)C(=O)C(N)=O)C2(C)C (stereo partly specified) was 8.30

Data point: CC(C)(C)[C@H](NC(=O)NC1(Cc2ccccc2O)CCCCC1)C(=O)N1C[C@H]2[C@@H]([C@H]1C(=O)NC(CC1CC1)C(=O)C(N)=O)C2(C)C (stereo partly specified) ; pKi = 7.72

Entry CC(C)(C)[C@H](NC(=O)NC1(Cc2ccccc2)CCCC1)C(=O)N1C[C@H]2[C@@H]([C@H]1C(=O)NC(CC1CC1)C(=O)C(N)=O)C2(C)C (stereo partly specified) — recorded pKi = 7.62

The reported pKi of the compound CC1(NC(=O)N[C@H](C(=O)N2C[C@H]3[C@@H]([C@H]2C(=O)NC(CC2CC2)C(=O)C(N)=O)C3(C)C)C(C)(C)C)CCC1 (stereo partly specified) was 7.62

// field: pKi; key: CC(C)(C)[C@H](NC(=O)NC1(C(O)c2ccccc2)CCCCC1)C(=O)N1C[C@H]2[C@@H]([C@H]1C(=O)NC(CC1CC1)C(=O)C(N)=O)C2(C)C (stereo partly specified) ; value = 7.96
